- SUBJECT OF TEST: UniProt:P52699
- Sequence (P52699 19-246, looked up, species assumed): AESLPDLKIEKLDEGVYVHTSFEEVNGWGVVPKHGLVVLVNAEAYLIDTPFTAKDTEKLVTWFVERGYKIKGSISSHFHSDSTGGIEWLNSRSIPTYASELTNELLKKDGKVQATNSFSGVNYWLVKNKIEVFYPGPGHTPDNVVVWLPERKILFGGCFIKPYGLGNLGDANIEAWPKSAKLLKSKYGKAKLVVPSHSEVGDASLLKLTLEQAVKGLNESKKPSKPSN
- ASSAY PROCEDURE: Enzyme activity: determination of IC50, fluorescence assay with CCF2-FA substrate
- Type: biochemical
- CONDITIONS: enzyme 2 pM, CCF2-FA 1.25 μM, 2 hours at 25° C.; read-out: IMP1 IC50
A collection of molecules and their measured pIC50
pIC50 here is simply -log10 of the concentration when that concentration is written in mol/L.

A selection of reference data follows.
{"GIVEN SMILES": "CC(C)[C@H](C(=O)O)[C@H](Cc1ccc(-c2ccc(N)nc2)cc1)c1nnn[nH]1", "pIC50": 7.40}
{"GIVEN SMILES": "CCC[C@H](C(=O)O)[C@H](Cc1ccc(NCc2ccc(O)cc2)nc1)c1nnn[nH]1", "pIC50": 5.82}

With those in mind, consider the next molecule.
Field pIC50 (UniProt:P52699), entry `CCC[C@H](C(=O)O)[C@H](Cc1ccc(-c2ccc(N3CCOCC3)nc2)cc1)c1nn[nH]n1` : 7.22
